- target_system: 4-hydroxyphenylpyruvate dioxygenase (Homo sapiens)
- Sequence (P32754 whole entry): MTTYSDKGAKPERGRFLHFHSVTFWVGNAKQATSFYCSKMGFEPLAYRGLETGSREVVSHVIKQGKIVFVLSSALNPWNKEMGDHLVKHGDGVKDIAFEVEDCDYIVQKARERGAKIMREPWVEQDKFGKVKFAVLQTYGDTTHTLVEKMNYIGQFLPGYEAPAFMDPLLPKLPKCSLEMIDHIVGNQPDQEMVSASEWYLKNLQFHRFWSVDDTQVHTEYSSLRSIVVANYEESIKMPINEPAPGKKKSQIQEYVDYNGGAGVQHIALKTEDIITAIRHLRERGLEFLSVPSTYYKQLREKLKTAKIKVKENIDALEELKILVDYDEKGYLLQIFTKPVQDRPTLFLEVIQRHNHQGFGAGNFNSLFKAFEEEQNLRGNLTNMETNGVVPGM
- assay_summary: Inhibition of purified His6-tagged recombinant human HPPD assessed as inhibition of maleylacetoacetate formation after 30 mins by UV/visible spectrophotometry
value_type: pKi
// pKi: -log10(molar conc.)

Prompt: Entry under review: Cc1ccc(-n2c(C)nc3ccc(C(=O)c4c(C)nn(C)c4O)cc3c2=O)c(C)c1 . Reported pKi?
Response: 6.79

Prompt: Quick one: pKi of Cc1nn(C)c(O)c1C(=O)c1ccc2nc(C)n(-c3ccccc3Cl)c(=O)c2c1 ?
Response: 7.07

Prompt: What does the record list as pKi for Cc1cc(F)ccc1-n1c(C)nc2ccc(C(=O)c3cnn(C)c3O)cc2c1=O ?
Response: 7.40

Prompt: Name the recorded pKi for Cc1nn(C)c(O)c1C(=O)c1ccc2nc(C)n(-c3cccc(Cl)c3)c(=O)c2c1 .
Response: 6.76

Prompt: pKi for Cc1ccc(-n2c(C)nc3ccc(C(=O)c4cnn(C)c4O)cc3c2=O)c(Cl)c1 ?
Response: 7.05

----------
- target_system: 4-hydroxyphenylpyruvate dioxygenase (Homo sapiens)
- assay_summary: Inhibition of purified His6-tagged recombinant human HPPD assessed as inhibition of maleylacetoacetate formation after 30 mins by UV/visible spectrophotometry
Label Fulfilled when Ki is strictly below 200 nM; otherwise label Not fulfilled.

Prompt: Threshold test, Ki < 200 nM: COc1ccccc1-n1c(C)nc2ccc(C(=O)c3c(C)nn(C)c3O)cc2c1=O
Response: Not fulfilled

Prompt: # check: Ki < 200 nM for Cc1ccccc1-n1c(C)nc2ccc(C(=O)c3c(C)nn(C)c3O)cc2c1=O
Response: Not fulfilled

Prompt: Dear colleague, could you confirm whether Ki of Cc1ccc(-n2c(C)nc3ccc(C(=O)c4c(C)nn(C)c4O)cc3c2=O)c(Br)c1 falls below 200 nM? Thanks.
Response: Fulfilled

Prompt: Strictly below 200 nM: is that where Ki of Cc1nn(C)c(O)c1C(=O)c1ccc2nc(C)n(-c3cccc(Br)c3)c(=O)c2c1 sits?
Response: Fulfilled

Prompt: Could you please tell me whether Ki recorded for Cc1nc2ccc(C(=O)c3cnn(C)c3O)cc2c(=O)n1-c1cccc(OC(F)(F)F)c1 is less than 200 nM?
Response: Fulfilled
